# Tested on: Acinetobacter baumannii
# MEASUREMENT_PROTOCOL: Antibacterial activity against polymyxin-susceptible Acinetobacter baumannii ATCC 17978 clinical isolates assessed as reduction in bacterial growth by broth microdilution method
# Assay type: functional
PROPERTY: MIC (µg/mL)
One number for each entry, in µg/mL.

A selection of reference data follows.
>>> recorded_value("CC[C@H](C)CCCCC(=O)N[C@@H](CCN)C(=O)N[C@H](C(=O)N[C@@H](CCN)C(=O)N[C@H]1CCNC(=O)CNC(=O)[C@H](CCN)NC(=O)[C@H](CCN)NC(=O)[C@H](CC(C)C)NC(=O)[C@@H](Cc2ccccc2)NC(=O)[C@H](CCN)NC1=O)[C@@H](C)O")
4
>>> recorded_value("C/C=C1/NC(=O)[C@H](CCN)NC(=O)[C@H](CCN)NC(=O)[C@H](CC(C)C)NC(=O)[C@@H](Cc2ccccc2)NC(=O)[C@H](CCN)NC(=O)[C@@H](NC(=O)[C@H](CCN)NC(=O)[C@@H](NC(=O)[C@H](CCN)NC(=O)CCCC[C@@H](C)CC)[C@@H](C)O)CCNC1=O")
1
>>> recorded_value("CC[C@H](C)CCCCC(=O)N[C@@H](CCN)C(=O)N[C@H](C(=O)N[C@@H](CCN)C(=O)N[C@H]1CCNC(=O)[C@H](CCCNC(=N)N)NC(=O)[C@H](CCN)NC(=O)[C@H](CCN)NC(=O)[C@H](CC(C)C)NC(=O)[C@@H](Cc2ccccc2)NC(=O)[C@H](CCN)NC1=O)[C@@H](C)O")
4

# batch: return MIC for each of the 6 compounds below
1. CC[C@H](C)CCCCC(=O)N[C@@H](CCN)C(=O)N[C@H](C(=O)N[C@@H](CCN)C(=O)N[C@H]1CCNC(=O)[C@H](C)NC(=O)[C@H](CCN)NC(=O)[C@H](CCN)NC(=O)[C@H](CC(C)C)NC(=O)[C@@H](Cc2ccccc2)NC(=O)[C@H](CCN)NC1=O)[C@@H](C)O
2. CC[C@H](C)CCCCC(=O)N[C@@H](CCN)C(=O)N[C@H](C(=O)N[C@@H](CCN)C(=O)N[C@H]1CCNC(=O)[C@H](Cc2c[nH]c3ccccc23)NC(=O)[C@H](CCN)NC(=O)[C@H](CCN)NC(=O)[C@H](CC(C)C)NC(=O)[C@@H](Cc2ccccc2)NC(=O)[C@H](CCN)NC1=O)[C@@H](C)O
3. CC[C@H](C)CCCCC(=O)N[C@@H](CCN)C(=O)N[C@H](C(=O)N[C@@H](CCN)C(=O)N[C@H]1CCNC(=O)[C@H]([C@H](C)O)NC(=O)[C@H](CCN)NC(=O)[C@H](CCN)NC(=O)[C@H](CC(C)C)NC(=O)[C@@H](Cc2ccccc2)NC(=O)[C@H](CCN)NC1=O)[C@@H](C)O
4. CCC[C@@H]1NC(=O)[C@H](CCN)NC(=O)[C@H](CCN)NC(=O)[C@H](CC(C)C)NC(=O)[C@@H](Cc2ccccc2)NC(=O)[C@H](CCN)NC(=O)[C@@H](NC(=O)[C@H](CCN)NC(=O)[C@@H](NC(=O)[C@H](CCN)NC(=O)CCCC[C@@H](C)CC)[C@@H](C)O)CCNC1=O
5. CC[C@H](C)CCCCC(=O)N[C@@H](CCN)C(=O)N[C@H](C(=O)N[C@@H](CCN)C(=O)N[C@H]1CCNC(=O)[C@H](Cc2ccc(O)cc2)NC(=O)[C@H](CCN)NC(=O)[C@H](CCN)NC(=O)[C@H](CC(C)C)NC(=O)[C@@H](Cc2ccccc2)NC(=O)[C@H](CCN)NC1=O)[C@@H](C)O
6. CC[C@H](C)CCCCC(=O)N[C@@H](CCN)C(=O)N[C@H](C(=O)N[C@@H](CCN)C(=O)N[C@H]1CCNC(=O)[C@H](CC)NC(=O)[C@H](CCN)NC(=O)[C@H](CCN)NC(=O)[C@H](CC(C)C)NC(=O)[C@@H](Cc2ccccc2)NC(=O)[C@H](CCN)NC1=O)[C@@H](C)O

Result:
1. 1
2. 4
3. 4
4. 4
5. 2
6. 2

Hey, quick one: what's MIC for each of these?
1. CC[C@H](C)CCCCC(=O)N[C@@H](CCN)C(=O)N[C@H](C(=O)N[C@@H](CCN)C(=O)N[C@H]1CCNC(=O)[C@H](C(C)N=[N+]=[N-])NC(=O)[C@H](CCN)NC(=O)[C@H](CCN)NC(=O)[C@H](CC(C)C)NC(=O)[C@@H](Cc2ccccc2)NC(=O)[C@H](CCN)NC1=O)[C@@H](C)O (some centres undefined)
2. CC[C@H](C)CCCCC(=O)N[C@@H](CCN)C(=O)N[C@H](C(=O)N[C@@H](CCN)C(=O)N[C@H]1CCNC(=O)[C@H](CO)NC(=O)[C@H](CCN)NC(=O)[C@H](CCN)NC(=O)[C@H](CC(C)C)NC(=O)[C@@H](Cc2ccccc2)NC(=O)[C@H](CCN)NC1=O)[C@@H](C)O
3. CC[C@H](C)CCCCC(=O)N[C@@H](CCN)C(=O)N[C@H](C(=O)N[C@@H](CCN)C(=O)N[C@H]1CCNC(=O)[C@@H]([C@H](C)O)NC(=O)[C@H](CCN)NC(=O)[C@H](CCN)NC(=O)[C@H](CC(C)C)NC(=O)[C@@H](Cc2ccccc2)NC(=O)[C@H](CCN)NC1=O)[C@@H](C)O

Result:
1. 2
2. 1
3. 4
